Data credit: patent US11999746B2

- TARGET_OR_TEST_SYSTEM: Lp-PLA2 in human plasma (Homo sapiens)
- Construct: from tissue; host or cells: pooled human plasma
- Sequence (Q13093 22-441): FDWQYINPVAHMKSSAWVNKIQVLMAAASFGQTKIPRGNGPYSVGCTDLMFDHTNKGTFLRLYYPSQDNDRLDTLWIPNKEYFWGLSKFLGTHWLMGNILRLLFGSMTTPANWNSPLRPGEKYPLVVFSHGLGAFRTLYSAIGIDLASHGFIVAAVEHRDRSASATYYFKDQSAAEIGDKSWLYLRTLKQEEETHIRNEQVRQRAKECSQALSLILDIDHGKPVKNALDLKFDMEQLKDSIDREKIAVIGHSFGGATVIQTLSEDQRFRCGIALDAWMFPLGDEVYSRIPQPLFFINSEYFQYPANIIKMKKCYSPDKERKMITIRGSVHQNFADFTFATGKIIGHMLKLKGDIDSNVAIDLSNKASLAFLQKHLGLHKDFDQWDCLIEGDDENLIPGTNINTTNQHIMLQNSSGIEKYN
- ASSAY_NOTES: (3a) Lp-PLA2 human plasma Thio-PAF assay
- Assay type: biochemical
- CONDITION_SET: (3a) Thio-PAF assay, pooled human plasma; Examples 1-265 and 413-430 were tested here; read-out: pIC50 in the Lp-PLA2 human plasma assay (converted)
EXPERIMENTAL_ENDPOINT: IC50

Solved cases (2 shown):
O=c1nc(OCc2cccc(F)c2F)cc2n1C[C@H]1COCCN21 : ≤ 0.1 µM
CN1c2cc(OCc3ccc(F)cc3F)nc(=O)n2CC12CCCC2 : ≤ 10 µM

For every item below, please supply its IC50.
1. N#Cc1cc(COc2cc3n(c(=O)n2)C[C@@H]2CCCN32)ccc1Oc1cc(F)cc(F)c1
2. O=c1nc(OCCc2cccc(F)c2)cc2n1C[C@H]1COCCN21

Output line:
≤ 10 µM
≤ 10 µM

For every item below, please supply its IC50.
1. O=c1nc(OCc2ccc(F)cc2F)cc2n1CC1CCCCN21 (stereo not drawn)
2. O=c1nc(OCc2cc(F)c(F)c(F)c2)cc2n1C[C@@H]1CCCCN21

Output line:
≤ 10 µM
≤ 10 µM

For every item below, please supply its IC50.
1. O=c1nc(OCc2cc(F)c(OC3(CCF)CC3)c(F)c2)cc2n1C[C@H]1CCCN21
2. O=c1nc(OCc2cccc(F)c2)cc2n1C[C@H]1CCCN21
3. O=c1nc(OCc2cc(F)cc(F)c2)cc2n1C[C@H]1CCCCN21
4. O=c1nc(OCc2cc(F)c(Oc3cnc(C(F)(F)F)nc3)c(F)c2)cc2n1CC1COCCN21 (stereo not drawn)
5. Cn1cc(Oc2ccc(COc3cc4n(c(=O)n3)C[C@@H]3CCCCN43)cc2F)cn1
6. Cn1cc(Oc2c(F)cc(COc3cc4n(c(=O)n3)C[C@@H]3CCOCN43)cc2F)cn1

Output line:
1: ≤ 10 µM; 2: ≤ 10 µM; 3: ≤ 10 µM; 4: ≤ 0.1 µM; 5: ≤ 10 µM; 6: ≤ 10 µM

For every item below, please supply its IC50.
1. O=c1nc(OCc2ccc(F)c(Cl)c2)cc2n1CC1CCCCN21 (stereo not drawn)
2. O=c1nc(OCc2cc(F)c(Oc3ccnc(C(F)(F)F)c3)c(F)c2)cc2n1C[C@H]1COCN21
3. CCn1cc(Oc2c(F)cc(COc3cc4n(c(=O)n3)CC3CCCN43)cc2F)cn1 (stereo not drawn)
4. CN1c2cc(OCc3cc(F)c(F)c(F)c3)nc(=O)n2CC12CCCCC2
5. O=c1nc(OCc2ccc(Oc3cnc(C(F)(F)F)nc3)c(F)c2)cc2n1C[C@@H]1CCCN21

Output line:
1. ≤ 10 µM
2. ≤ 0.1 µM
3. ≤ 10 µM
4. ≤ 10 µM
5. ≤ 10 µM
